// provenance: paper PMC6534212

Reported IC50 by item:
Target or test system: BuChE from equine serum (Equus caballus, UniProt P81908)
Construct: Butyrylcholinesterase (BuChE, from equine serum, Aladdin, Shanghai, China)
Sequence (P81908 whole entry): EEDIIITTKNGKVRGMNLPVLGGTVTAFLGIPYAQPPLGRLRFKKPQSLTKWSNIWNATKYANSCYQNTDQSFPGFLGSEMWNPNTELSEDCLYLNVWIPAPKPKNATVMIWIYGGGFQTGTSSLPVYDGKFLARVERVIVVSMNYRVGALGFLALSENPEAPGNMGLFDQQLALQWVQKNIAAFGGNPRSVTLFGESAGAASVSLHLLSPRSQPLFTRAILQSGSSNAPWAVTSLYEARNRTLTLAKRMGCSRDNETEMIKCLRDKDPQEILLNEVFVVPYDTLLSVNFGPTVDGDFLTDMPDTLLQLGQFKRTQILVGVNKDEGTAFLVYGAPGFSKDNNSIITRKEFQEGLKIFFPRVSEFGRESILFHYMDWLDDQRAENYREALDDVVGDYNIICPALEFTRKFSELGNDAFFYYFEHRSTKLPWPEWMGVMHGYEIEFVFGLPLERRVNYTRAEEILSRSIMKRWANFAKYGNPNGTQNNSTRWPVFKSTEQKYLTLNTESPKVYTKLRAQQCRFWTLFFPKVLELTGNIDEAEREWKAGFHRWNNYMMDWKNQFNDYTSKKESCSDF
Method: biochemical
Condition info: BuChE from equine serum; mean ± SD (n=3)
All answers are understood in µM, so give the number only.

>  <Molecule>
O=C(Nc1ccc(-c2cc3ccc(O)cc3oc2=O)cc1)c1ccc(Cl)cc1 [Compound 4h]

>  <IC50 / µM>
3.88

$$$$

Entry COc1cccc2cc(-c3ccc(NC(=O)c4ccc(F)cc4)cc3)c(=O)oc12 [Compound 4k] : reported IC50 = ? 0.559
